Data origin: patent US20150157739A1

Molecular target: aggregated recombinant human-microtubule associated protein Tau (Homo sapiens)
Construct: Recombinant human-microtubule associated protein Tau purified from E. coli is aggregated at a concentration of 5 μM with Arachidonic Acid (100 μM) in Tris 10 mM pH8, 24 h at 37° C
Sequence (P10636 whole entry): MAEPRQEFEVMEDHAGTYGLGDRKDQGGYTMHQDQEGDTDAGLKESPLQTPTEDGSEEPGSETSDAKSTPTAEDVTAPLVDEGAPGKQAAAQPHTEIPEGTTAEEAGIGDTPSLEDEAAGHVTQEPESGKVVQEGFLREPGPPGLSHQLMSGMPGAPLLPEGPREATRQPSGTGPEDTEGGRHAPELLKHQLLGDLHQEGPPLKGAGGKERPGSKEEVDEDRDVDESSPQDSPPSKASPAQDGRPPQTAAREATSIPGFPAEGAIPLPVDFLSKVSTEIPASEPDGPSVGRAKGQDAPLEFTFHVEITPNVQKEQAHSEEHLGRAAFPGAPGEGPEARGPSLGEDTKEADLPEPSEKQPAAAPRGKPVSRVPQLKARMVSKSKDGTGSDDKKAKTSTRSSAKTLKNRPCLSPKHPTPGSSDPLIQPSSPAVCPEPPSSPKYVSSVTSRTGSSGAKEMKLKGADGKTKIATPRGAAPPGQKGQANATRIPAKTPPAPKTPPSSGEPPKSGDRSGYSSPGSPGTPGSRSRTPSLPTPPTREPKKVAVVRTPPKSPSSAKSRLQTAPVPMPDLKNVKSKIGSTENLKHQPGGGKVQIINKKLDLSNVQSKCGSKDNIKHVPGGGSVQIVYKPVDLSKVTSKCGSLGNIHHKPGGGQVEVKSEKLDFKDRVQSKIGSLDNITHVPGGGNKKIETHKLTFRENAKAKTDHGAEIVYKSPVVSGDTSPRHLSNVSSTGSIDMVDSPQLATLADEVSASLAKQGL
Assay: Thiazin-red R displacement fluorescence assay on aggregated Tau
Conditions: displacement of Thiazin-red R from aggregated Tau; compound 0.3 nM to 10000 nM; 30 min room temperature; Ex 531 nm/Em 595 nm
ENDPOINT: IC50
A complete answer gives the number and then names the unit.

// solved cases for IC50 follow
COc1cc(/C=c2\sc3nc(-c4cccc(C(=O)O)c4)cn3c2=O)cc(Cl)c1O: 19 nM
COc1cc(/C=c2\sc3nc(-c4cccc(S(=O)(=O)F)c4)cn3c2=O)cc(Cl)c1O: 7 nM
COc1cc(/C=c2\sc3nc(-c4ccc(Cl)cc4)cn3c2=O)cc(Cl)c1O: 2 nM
COc1cc(/C=c2\sc3nc(-c4cccnc4)cn3c2=O)cc(Br)c1O: 3 nM
COc1cc(/C=c2\sc3nc(-c4cccc(C)c4)cn3c2=O)cc(Cl)c1O: 7 nM
COc1cc(/C=c2\sc3nc(-c4cccc(C(F)(F)F)c4)cn3c2=O)cc(Cl)c1O: 3 nM
COc1cc(/C=c2\sc3nc(-c4cccc(OC(F)(F)F)c4)cn3c2=O)ccc1O: 401 nM

### Prompt I'd like to know its IC50. The molecule in question is `COc1cc(/C=c2\sc3nc(-c4ccnc(C)c4)cn3c2=O)cc(F)c1O`
### Response 6 nM

###

Target: aggregated recombinant human-microtubule associated protein Tau (Homo sapiens)
Construct: Recombinant human-microtubule associated protein Tau purified from E. coli is aggregated at a concentration of 5 μM with Arachidonic Acid (100 μM) in Tris 10 mM pH8, 24 h at 37° C
Assay: Thiazin-red R displacement fluorescence assay on aggregated Tau
Details: displacement of Thiazin-red R from aggregated Tau; compound 0.3 nM to 10000 nM; 30 min room temperature; Ex 531 nm/Em 595 nm
ENDPOINT: IC50
State the value with its unit after it.

Below are worked cases with known answers.
COc1cc(/C=c2\sc3nc(-c4cc(F)cc(F)c4)cn3c2=O)cc(Cl)c1O: 16 nM
CCCOc1cc(/C=c2\sc3nc(-c4ccncc4)cn3c2=O)cc(F)c1O: 23.5 nM
COc1cc(/C=c2\sc3nc(-c4ccc(F)c(C(F)(F)F)c4)cn3c2=O)cc(Br)c1O: 28 nM

Turning to the following molecule.
### Prompt # get_value(readout= IC50, system= aggregated recombinant human-microtubule associated protein Tau (Homo sapiens)) for `COc1cc(/C=c2\sc3nc(-c4cccc(C(F)(F)F)c4)cn3c2=O)cc(OC)c1O`
### Response 1 nM

###

Molecular target: aggregated synthetic Aβ40 (Homo sapiens, UniProt P05067)
Construct: Synthetic Aβ40 is aggregated at a concentration of 50 μM
Sequence (P05067 672-711 limits assumed): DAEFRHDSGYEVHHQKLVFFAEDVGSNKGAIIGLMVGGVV
Test: Thiazin-red R displacement fluorescence assay on aggregated A-beta
Conditions: displacement of Thiazin-red R from aggregated Aβ40; compound 0.3 nM to 10000 nM; 30 min room temperature; Ex 531 nm/Em 595 nm
Each item that follows carries a reported IC50.
Give the quantity in nM, number only.

Sample records with IC50:
COc1cccc(-c2cn3c(=O)/c(=C/c4cc(F)c(O)c(OC)c4)sc3n2)c1: 540
COc1cc(/C=c2\sc3nc(-c4ccc(F)c(C(F)(F)F)c4)cn3c2=O)cc(F)c1O: 198
O=c1/c(=C/c2cc(Cl)c(O)c(OCCCF)c2)sc2nc(-c3ccncc3)cn12: 1060

### Prompt Endpoint output: IC50 of `COc1cc(/C=c2\sc3nc(-c4ccc(C(=O)N(C)CCF)cc4)cn3c2=O)cc(F)c1O` . Value?
### Response 1010
